Tested on: BT-549 breast
Test Description: NCI-60 one-dose screen, 48 h (100 = growth as untreated, 0 = no growth, -100 = all killed)
Condition Info: 10 µM unless noted
About 83,000 compounds went through this panel and 20% of them were active in at least one assay; those are over-represented in the sample as a whole.
Outcome Measure: growth (%)
The answer is to be given in %; state only the numeric part.

Worked set:
CCc1ccccc1[C@@H]1C[C@]2(C)CCO[C@@H]2OO1    111
COc1ccc(/C=C\c2cc(OC)c(OC)c(OC)c2)cc1NC(=O)/C=C/c1cc(OC)c(OC)c(OC)c1    44
CCOC(=O)C(Cc1ccc(N(CCCl)CCCl)cc1)NC(=O)C(CC(C)C)NC(C)=O (stereo not given)    65
COc1ccc(S(=O)(=O)N(Cc2ccc3c(c2)C=CC(C)(C)O3)c2ccccc2)cc1OC    54

Let us move to another entry and its growth.
Noted growth for CC(=O)OC1CCC2(C)C(CCC3C2CC(=O)C2(C)C3CC(Sc3ccc(N(CCCl)CCCl)cc3)C2C(C)=O)C1 (stereo not given) , tested on BT-549 breast: 80.8
